system: RXF 393 renal; assay: NCI tumour cell line growth inhibition, 48 h
// reported TGI for each item listed

| molecule | TGI |
| --- | --- |
| COc1ccc(C(O)(CCC(C)C)C(CN2CCOCC2)c2ccc(Cl)cc2)cc1 (stereo not given) | 21.7 µM |

Data request: Fill in the blank: the reported TGI of CC(C)OC(=O)[C@H](C)NP(=O)(OC[C@H]1O[C@@H](n2ccc(=O)[nH]c2=O)[C@](C)(F)[C@@H]1O)Oc1ccccc1 (stereo not given in full) is ____.
Data returned: > 100 µM

----------
// reported TGI for each item listed
tested on: PC-3 prostate; experiment: NCI tumour cell line growth inhibition, 48 h

Below, 5 compounds whose answers are already recorded.
| compound | assayed_target | TGI |
| --- | --- | --- |
| C=CCc1ccc(O)c(-c2ccc(O)c(CC=C)c2)c1 | PC-3 prostate | 33.2 µM |
| Oc1cn(-c2ccc(Cl)cc2)nc1-c1n[nH]c(=S)n1-c1ccccc1 | PC-3 prostate | > 100 µM |
| CS(=O)(=O)Nc1cc(-c2ccc3ncnc(Nc4c(Cl)ccc5c4OCO5)c3c2)cnc1Cl | PC-3 prostate | 1.77 µM |
| CCOC(=O)c1sc2c(c1OC(=O)c1ccc(OC)cc1)c(=O)n(-c1ccccc1)c(=S)n2-c1ccccc1 | PC-3 prostate | > 100 µM |
| COC(=O)c1ccc(-c2c(C#N)[n+](=O)c3cc(Cl)c(Cl)cc3n2[O-])cc1 | PC-3 prostate | 27.9 µM |

Data request: Fill in the blank: the reported TGI of "Cc1nc2ccc(F)cc2c2c1CCN2c1ccc(Cl)cc1" is ____.
Data returned: 22.7 µM

Data request: Fill in the blank: the reported TGI of "Cc1cc(/N=C/c2ccc(F)cc2)n(-c2ccccc2)n1" is ____.
Data returned: > 100 µM

Data request: Fill in the blank: the reported TGI of "CCc1nc(N)nc(N)c1-c1ccc([N+](C)(C)C)cc1" is ____.
Data returned: > 100 µM

Data request: Fill in the blank: the reported TGI of "CCOc1nnnc2nc[nH]c12" is ____.
Data returned: > 100 µM

Data request: Fill in the blank: the reported TGI of CC1CN=C(N(C(=O)Nc2ccccc2)c2ccc(Cl)c(Cl)c2)S1 (stereo unspecified) is ____.
Data returned: > 100 µM

Data request: Fill in the blank: the reported TGI of "CCOC(=O)C(CCN1CCC2(CC1)C(=O)N(C)CN2c1ccccc1)C(=O)OCC" is ____.
Data returned: > 100 µM

Data request: Fill in the blank: the reported TGI of Cn1c2c(c3ccccc31)CCN1C(=O)CN(C(=O)C3CCCCC3)CC21 (stereo unspecified) is ____.
Data returned: > 100 µM

Data request: Fill in the blank: the reported TGI of "Cc1ncc([N+](=O)[O-])n1CCNCCCCn1ccnc1[N+](=O)[O-]" is ____.
Data returned: > 100 µM

Data request: Fill in the blank: the reported TGI of "COC(=O)C1=C(O)c2ccc(Cl)cc2S(=O)(=O)N1C" is ____.
Data returned: > 100 µM
